Test system: HeLa, HT-29 and MCF-7 human tumor cell lines
assay.summary: Antiproliferative activity over the three human tumor cell lines (MTT)
Type: cell-based
experimental.conditions: Homo sapiens, range over the cell lines, Table S1; read-out: Cytotoxicity range (range of antiproliferative IC50 values)
Protocol: The in vitro antiproliferative activity of the synthesized compounds was evaluated by a colorimetric reaction, using the MTT reagent. […] The antiproliferative activity of the compounds against three human tumor cell lines of different origins (i.e., HeLa cervix epithelioid carcinoma, HT-29 colon adenocarcinoma and MCF-7 breast adenocarcinoma) was evaluated by the MTT method. […]
experimental.readout: IC50

Example cases with answers are listed next.
• COc1cc(C=Cc2ccnc(N3CCCC3)c2)cc(OC)c1OC = > 1000 nM
• COc1cc(C=Cc2ccc([N+](C)(C)C)cc2)cc(OC)c1OC = > 1000 nM
• COc1ccc(OC)c(C(=O)c2ccc([N+](C)(C)C)cc2)c1.[I-] = > 1000 nM
• COc1ccc(C(=O)c2ccc([N+](C)(C)C)cc2)c(OC)c1OC.[I-] = > 1000 nM
• COc1cc(C(=NO)c2ccnc(N(C)C)c2)cc(OC)c1OC = 407 to 3330 nM
• COc1cc(C=Cc2ccc(N(C)C)nc2)cc(OC)c1OC = 57 to 80 nM

stdin: Tell us which IC50 value is on record for C=C(c1ccc(N(C)C)nc1)c1cc(OC)c(OC)c(OC)c1
stdout: 81 to 277 nM

stdin: Find the measured IC50 of C=C(c1ccc(N(C)C)cc1)c1ccc(OC)c(OC)c1OC and report it.
stdout: > 1000 nM

stdin: Recall and state the measured IC50 for COc1cc(C(=O)c2ccc([N+](C)(C)C)cc2)cc(OC)c1OC .
stdout: > 1000 nM

stdin: Name the recorded IC50 of the item C=C(c1ccc(N2CCCC2)nc1)c1cc(OC)c(OC)c(OC)c1 in your answer.
stdout: 140 to 523 nM

The measurements presented in this section are drawn from paper PMC6930638.
